target: T1, cyno FcRn/b2M (cyno, UniProt Q8SPV9 24-297; Q8SPW0 21-119, biotinylated); assay: SPR pH 7.4;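 note: surface plasmon resonance kinetics, periplasmic extracts diluted 1:10 flowed over immobilized target at 25 °C, 120 s association then 600–3600 s dissociation, buffer with 150 mM NaCl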
T1 construct: bought recombinant biotinylated protein (Immunitrack ITF05 or ACRO FCM-C82W5); also called cFcRn; cFcRn/cb2M
T1 sequence (Q8SPV9 24-297 limits assumed, chain 1 of 2): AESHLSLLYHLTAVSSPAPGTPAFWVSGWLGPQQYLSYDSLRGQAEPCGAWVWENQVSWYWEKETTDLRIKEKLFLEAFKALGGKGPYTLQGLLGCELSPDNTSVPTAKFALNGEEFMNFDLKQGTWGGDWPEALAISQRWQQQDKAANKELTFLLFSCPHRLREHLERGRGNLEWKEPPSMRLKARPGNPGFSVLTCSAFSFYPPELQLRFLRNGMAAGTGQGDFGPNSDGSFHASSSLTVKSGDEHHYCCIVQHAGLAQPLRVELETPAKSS
T1 sequence (Q8SPW0 21-119 limits assumed, chain 2 of 2): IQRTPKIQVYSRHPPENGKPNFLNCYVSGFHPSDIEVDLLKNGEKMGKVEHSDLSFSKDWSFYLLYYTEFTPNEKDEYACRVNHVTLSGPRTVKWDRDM
Measured Attribute: koff (s⁻¹)

Here are 6 binders together with their reported answers.
// query Entry T0263018B11 T57W (VHH, name in Kabat numbering, FLAG3-His6 tagged) VHH: EVQLVESGGGVVQPGGSLRLSCAASGFTFSSYAMYWVRQAPGKGLEWVSAISSGGGSWDYADSVKGRFTISRDNSKNTLYLQMNSLRPEDTALYYCAADTLYTSLTWYSYWGQGTLVTVSS has what koff?
// result 0.028

// query And what about the binder T0263018B11 F29H (VHH, name in Kabat numbering, FLAG3-His6 tagged) VHH: EVQLVESGGGVVQPGGSLRLSCAASGFTHSSYAMYWVRQAPGKGLEWVSAISSGGGSTDYADSVKGRFTISRDNSKNTLYLQMNSLRPEDTALYYCAADTLYTSLTWYSYWGQGTLVTVSS ?
// result 0.13

// query How about T0263018B11 S101V (VHH, name in Kabat numbering, FLAG3-His6 tagged) VHH: EVQLVESGGGVVQPGGSLRLSCAASGFTFSSYAMYWVRQAPGKGLEWVSAISSGGGSTDYADSVKGRFTISRDNSKNTLYLQMNSLRPEDTALYYCAADTLYTSLTWYVYWGQGTLVTVSS ?
// result 0.026

// query Queued: T0263018B11 S101W (VHH, name in Kabat numbering, FLAG3-His6 tagged) VHH: EVQLVESGGGVVQPGGSLRLSCAASGFTFSSYAMYWVRQAPGKGLEWVSAISSGGGSTDYADSVKGRFTISRDNSKNTLYLQMNSLRPEDTALYYCAADTLYTSLTWYWYWGQGTLVTVSS
// result 0.00086

// query Same again, this time with T0263018B11 T57P (VHH, name in Kabat numbering, FLAG3-His6 tagged) VHH: EVQLVESGGGVVQPGGSLRLSCAASGFTFSSYAMYWVRQAPGKGLEWVSAISSGGGSPDYADSVKGRFTISRDNSKNTLYLQMNSLRPEDTALYYCAADTLYTSLTWYSYWGQGTLVTVSS
// result 0.054

// query # repeat for T0263018B11 Y32V (VHH, name in Kabat numbering, FLAG3-His6 tagged) VHH: EVQLVESGGGVVQPGGSLRLSCAASGFTFSSVAMYWVRQAPGKGLEWVSAISSGGGSTDYADSVKGRFTISRDNSKNTLYLQMNSLRPEDTALYYCAADTLYTSLTWYSYWGQGTLVTVSS
// result 0.13

a: T0263018B11 Y32S (VHH, name in Kabat numbering, FLAG3-His6 tagged) VHH: EVQLVESGGGVVQPGGSLRLSCAASGFTFSSSAMYWVRQAPGKGLEWVSAISSGGGSTDYADSVKGRFTISRDNSKNTLYLQMNSLRPEDTALYYCAADTLYTSLTWYSYWGQGTLVTVSS
b: T0263018B11 T57N (VHH, name in Kabat numbering, FLAG3-His6 tagged) VHH: EVQLVESGGGVVQPGGSLRLSCAASGFTFSSYAMYWVRQAPGKGLEWVSAISSGGGSNDYADSVKGRFTISRDNSKNTLYLQMNSLRPEDTALYYCAADTLYTSLTWYSYWGQGTLVTVSS
// query Lab log: flag the item ( a or b ) with the smaller koff figure. Returns: label corresponding to the selected item.
// result b
